Reference for the values: patent US10350206B2

biological target: catalytic domain of human Bub1 (amino acids 704-1085) (Homo sapiens, UniProt O43683); construct: catalytic domain of human Bub1 (amino acids 704-1085); His6 (N); made in house; host or cells: Hi5 insect cells; test: Bub1 kinase assay (TR-FRET); type: biochemical; settings: 10 μM ATP, 60 min reaction, pH 7.5; read-out: Biological Assay 1: Bub1 kinase assay median IC50
parameter: IC50 (nM)
State the answer as a number, implicitly in nM.

# example entries with known answers
| molecule | numeric readout |
| --- | --- |
| COc1cnc(-c2nn(Cc3c(F)cc(OCCO)cc3F)c3ccccc23)nc1Nc1ccnc(C)c1OC [Example 2-1-18] | 14 |
| COc1cnc(-c2nn(Cc3c(F)cc(OCCO)cc3F)c3ccccc23)nc1Nc1cc(C)nc(C)n1 [Example 2-4-1] | 37 |
| COc1cnc(-c2nn(Cc3c(F)cc(OCCO)cc3F)c3ccccc23)nc1Nc1ccnc(NC(C)=O)c1 [Example 2-1-4] | 8.3 |

Let's switch to this molecule now.
Problem: Look up IC50 for this molecule: COc1cnc(-c2nn(Cc3c(F)cc(OCCO)cc3F)c3ccccc23)nc1Nc1ccncc1C [Example 2-1-5]
Result: 10

* * *

Overview of recorded pIC50 for various compounds
molecular target: catalytic domain of human Bub1 (amino acids 704-1085) (Homo sapiens, UniProt O43683); construct: catalytic domain of human Bub1 (amino acids 704-1085); His6 (N); made in house; host or cells: Hi5 insect cells; assay: Equilibrium probe competition assay (TR-FRET kinase binding assay); settings: Time 1440 min; read-out: Assay 5 IC50
Lab note: report pIC50 as minus log10 of the concentration in molar units, number only.

Some solved entries appear below for comparison.
| chemical smiles | test system | pIC50 |
| --- | --- | --- |
| COc1cnc(-c2nn(Cc3c(F)cc(OCCO)cc3F)c3ccccc23)nc1Nc1ccnc(C)c1 | catalytic domain of human Bub1 (amino acids 704-1085) (Homo sapiens, UniProt O43683) | 8.62 |
| COc1cnccc1Nc1nc(-c2nn(Cc3c(F)cc(OCCOC(=O)[C@H](C)NC(=O)[C@@H](N)CCCCN)cc3F)c3ccccc23)ncc1OC | catalytic domain of human Bub1 (amino acids 704-1085) (Homo sapiens, UniProt O43683) | 9.44 |
| COc1cnc(-c2nn(Cc3c(F)cc(OCCOC(=O)[C@H](C)NC(=O)[C@@H](N)CCCCN)cc3F)c3ccccc23)nc1Nc1ccnc(C)c1 | catalytic domain of human Bub1 (amino acids 704-1085) (Homo sapiens, UniProt O43683) | 8.57 |

Pending compound:
Problem: Item under review: `COc1cnccc1Nc1nc(-c2nn(Cc3c(F)cc(OCCO)cc3F)c3ccccc23)ncc1OC` . Reported pIC50?
Result: 9.70

* * *

molecular target: catalytic domain of human Bub1 (amino acids 704-1085) (Homo sapiens, UniProt O43683); construct: catalytic domain of human Bub1 (amino acids 704-1085); His6 (N); made in house; host or cells: Hi5 insect cells; assay: Equilibrium probe competition assay (TR-FRET kinase binding assay); settings: Time 120 min; read-out: Assay 5 IC50
Below, each entry is listed alongside its reported IC50.
Give the figure together with its unit, number first.

| chemical smiles | result |
| --- | --- |
| COc1cnccc1Nc1nc(-c2nn(Cc3c(F)cc(OCCOC(=O)[C@H](C)NC(=O)[C@@H](N)CCCCN)cc3F)c3ccccc23)ncc1OC | 1 nM |
| COc1cnccc1Nc1nc(-c2nn(Cc3c(F)cc(OCCO)cc3F)c3ccccc23)ncc1OC | 0.49 nM |
| COc1cnc(-c2nn(Cc3c(F)cc(OCCO)cc3F)c3ccccc23)nc1Nc1ccnc(C)c1 | 2.9 nM |

Now turn to the next compound.
Problem: Consider the compound `COc1cnc(-c2nn(Cc3c(F)cc(OCCOC(=O)[C@H](C)NC(=O)[C@@H](N)CCCCN)cc3F)c3ccccc23)nc1Nc1ccnc(C)c1` and give its measured IC50.
Result: 7.2 nM
